B1: Transitional endoplasmic reticulum ATPase, residues 26 to 106; numbered along this chain, P55072 (parent)
chain: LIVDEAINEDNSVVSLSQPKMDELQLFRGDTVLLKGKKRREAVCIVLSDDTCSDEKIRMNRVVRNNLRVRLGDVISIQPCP

variants of: B1; experiment: abundance fitness (aPCA) (normalised: wild type 0, dead -1); higher = more abundant; growth selection in yeast, the domain comes from the species named; conditions: Homo sapiens
List of abundance fitness values.
A bare number is all that is needed in reply.

1. S17C -0.381

Continue with the variant presented below.
For L33W the variant record lists abundance fitness as -0.155

Reference source for all entries: the Human Domainome abundance scans (Beltran et al. 2025)
